# Protocol details: Phytotoxicity against Glycine max (soybean) assessed as growth inhibition at 75 g.a.i/ha pre-emergent application measured after 15 days by greenhouse crop selectivity assay
# Assay type: organism-based
# Test conditions: in vivo, 75 g.a.i/ha, read-out: GI

Compound	inhibition at 360 h
C#CCN1C(=O)COc2cc(F)c(N3C(=O)C4=C(CCCC4)C3=O)cc21 [FLUMIOXAZIN]	> 10%

---

# Test system: Glycine max
# Protocol details: Phytotoxicity against Glycine max (soybean) assessed as growth inhibition at 37.5 g.a.i/ha pre-emergent application measured after 15 days by greenhouse crop selectivity assay
# Format: organism-based
# Test conditions: in vivo, other, 360 h

Compound	growth inhibition (GI)
C#CCN1C(=O)COc2cc(F)c(N3C(=O)C4=C(CCCC4)C3=O)cc21	Not Active
CCOC(=O)C(C)N1C(=O)C(C)Oc2cc(F)c(N3C(=O)C4=C(CCCC4)C3=O)cc21 (centres undefined)	Not Active
COC(=O)C(C)N1C(=O)C(C)Oc2cc(F)c(N3C(=O)C4=C(CCCC4)C3=O)cc21 (centres undefined)	Not Active
CCOC(=O)C(CC)N1C(=O)C(C)Oc2cc(F)c(N3C(=O)C4=C(CCCC4)C3=O)cc21 (centres undefined)	Not Active

---

# Lookup of reported inhibition of growth at 75 g/ha keyed by entry
# System: Abutilon theophrasti
# Protocol details: Pre-emergence herbicidal activity against Abutilon theophrasti (velvetleaf) assessed as growth inhibition at 75 g.a.i./ha applied 24 hr after seeds were sown measured after 15 days
# Assay type: functional
# Test conditions: read-out: GI

Compound	inhibition of growth at 75 g/ha
COC(=O)C(C)N1C(=O)COc2cc(F)c(N3C(=O)c4ccccc4C3=O)cc21 (stereo not drawn)	< 50%
COC(=O)C(C)N1C(=O)COc2cc(F)c(N3C(=O)C4=C(CCCC4)C3=O)cc21 (stereo not drawn)	> 80%
COC(=O)CN1C(=O)COc2cc(F)c(N3C(=O)C4=C(CCCC4)C3=O)cc21	50%
CCOC(=O)CN1C(=O)COc2cc(F)c(N3C(=O)c4cc(Cl)c(Cl)cc4C3=O)cc21	< 50%
CCOC(=O)C(c1ccccc1)N1C(=O)COc2cc(F)c(N3C(=O)C4=C(CCCC4)C3=O)cc21 (stereo not drawn)	50%
CCOC(=O)C(C)N1C(=O)COc2cc(F)c(N3C(=O)c4cc(Cl)c(Cl)cc4C3=O)cc21 (stereo not drawn)	< 50%
CCOC(=O)CN1C(=O)COc2cc(F)c(N3C(=O)c4ccccc4C3=O)cc21	50%
C#CCN1C(=O)COc2cc(F)c(N3C(=O)C4=C(CCCC4)C3=O)cc21	> 80%
CCOC(=O)C(CC)N1C(=O)COc2cc(F)c(N3C(=O)C4=C(CCCC4)C3=O)cc21 (stereo not drawn)	> 80%
CCOC(=O)CN1C(=O)COc2cc(F)c(N3C(=O)c4ccc(C)cc4C3=O)cc21	< 50%
CCOC(=O)C(C)(C)N1C(=O)C(C)Oc2cc(F)c(N3C(=O)C4=C(CCCC4)C3=O)cc21 (stereo not drawn)	< 50%
CCOC(=O)C(C)N1C(=O)COc2cc(F)c(N3C(=O)c4ccc(C)cc4C3=O)cc21 (stereo not drawn)	< 50%
COC(=O)CN1C(=O)COc2cc(F)c(N3C(=O)c4ccccc4C3=O)cc21	50%
CCOC(=O)C(C)N1C(=O)C(C)Oc2cc(F)c(N3C(=O)C4=C(CCCC4)C3=O)cc21 (stereo not drawn)	> 80%
CCOC(=O)C(c1ccccc1)N1C(=O)C(C)Oc2cc(F)c(N3C(=O)C4=C(CCCC4)C3=O)cc21 (stereo not drawn)	50%
CCOC(=O)CN1C(=O)COc2cc(N3C(=O)c4ccccc4C3=O)c(F)cc21	< 50%
CCOC(=O)CN1C(=O)COc2cc(F)c(N3C(=O)C4=C(CCCC4)C3=O)cc21	> 80%
CCOC(=O)CN1C(=O)COc2cc(N3C(=O)c4ccc(C)cc4C3=O)c(F)cc21	< 50%
COC(=O)CN1C(=O)C(C)Oc2cc(F)c(N3C(=O)C4=C(CCCC4)C3=O)cc21 (stereo not drawn)	> 80%
CCC(C(=O)OC)N1C(=O)COc2cc(F)c(N3C(=O)C4=C(CCCC4)C3=O)cc21 (stereo not drawn)	< 50%
CCOC(=O)C(CC)N1C(=O)C(C)Oc2cc(F)c(N3C(=O)C4=C(CCCC4)C3=O)cc21 (stereo not drawn)	> 80%
COC(=O)C(C)N1C(=O)C(C)Oc2cc(F)c(N3C(=O)C4=C(CCCC4)C3=O)cc21 (stereo not drawn)	> 80%
CCOC(=O)C(C)N1C(=O)COc2cc(F)c(N3C(=O)c4ccc([N+](=O)[O-])cc4C3=O)cc21 (stereo not drawn)	< 50%
C#CCN1C(=O)COc2cc(F)c(N3C(=O)c4ccc(F)cc4C3=O)cc21	> 80%
CCOC(=O)CN1C(=O)C(C)Oc2cc(F)c(N3C(=O)C4=C(CCCC4)C3=O)cc21 (stereo not drawn)	> 80%
CCOC(=O)C(C)N1C(=O)COc2cc(F)c(N3C(=O)C4=C(CCCC4)C3=O)cc21 (stereo not drawn)	> 80%
CCOC(=O)CN1C(=O)COc2cc(F)c(N3C(=O)c4ccc([N+](=O)[O-])cc4C3=O)cc21	< 50%
CCOC(=O)CN1C(=O)COc2cc(N3C(=O)c4cc(Cl)c(Cl)cc4C3=O)c(F)cc21	< 50%
